- assayed-system: N-terminally FLAG-tagged PARP2 (amino acids 1-583) (Homo sapiens, UniProt Q9UGN5)
- Construct: N-terminally FLAG-tagged PARP2 (amino acids 1-583)
- Sequence (Q9UGN5 whole entry, the tested form may be a part): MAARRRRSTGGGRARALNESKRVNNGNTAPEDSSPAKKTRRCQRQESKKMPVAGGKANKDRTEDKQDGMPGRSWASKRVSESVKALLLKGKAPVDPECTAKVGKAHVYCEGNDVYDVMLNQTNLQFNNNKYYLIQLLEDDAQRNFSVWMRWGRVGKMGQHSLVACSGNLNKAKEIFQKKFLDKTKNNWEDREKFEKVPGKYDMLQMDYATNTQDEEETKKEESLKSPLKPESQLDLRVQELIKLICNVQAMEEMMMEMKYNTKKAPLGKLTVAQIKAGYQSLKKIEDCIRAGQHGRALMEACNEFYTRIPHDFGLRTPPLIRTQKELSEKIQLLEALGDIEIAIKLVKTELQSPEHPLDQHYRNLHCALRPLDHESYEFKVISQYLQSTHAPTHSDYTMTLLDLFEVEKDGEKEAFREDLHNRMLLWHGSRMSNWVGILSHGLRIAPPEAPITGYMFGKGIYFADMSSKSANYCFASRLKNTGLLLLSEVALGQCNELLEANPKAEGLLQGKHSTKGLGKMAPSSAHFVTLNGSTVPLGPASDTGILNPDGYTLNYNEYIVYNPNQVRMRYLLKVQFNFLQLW
- method-summary: PARP2 probe displacement HTRF assay
- Assay type: binding
- condition-info: binned Kd, PARP2 probe displacement HTRF
pKd: −log10 of the molar value.
# pKd per record follows

Check out these entries, answers already filled in.
CNC(=O)c1ccc(N2CCC(N3CCCC(c4ncc(CC(F)(F)F)c(=O)[nH]4)C3)CC2)cn1 (single isomer, unassigned) [Compound 212b]
< 5.00
N#Cc1ccc(N2CCC(N3CCC(c4nc5ccccc5c(=O)[nH]4)C3)CC2)nc1 (single isomer, unassigned) [Compound 55b]
6.00 to 7.00
CNC(=O)c1ccc(N2CCC(N3CCC(c4cc5c(F)cc(F)cc5c(=O)[nH]4)C3)CC2)cn1 (single isomer, unassigned) [Compound 186a]
6.00 to 7.00

Reported pKd (N-terminally FLAG-tagged PARP2 (amino acids 1-583) (Homo sapiens, UniProt Q9UGN5)) for entry CNC(=O)c1ccc(N2CCC(N3CCC(c4nc5c(c(C(F)(F)F)cn5C)c(=O)[nH]4)C3)CC2)cn1 (single isomer, unassigned) [Compound 170b] is > 8.00

* * *

- assayed-system: full length N-terminally FLAG-tagged PARP1 (Homo sapiens)
- Sequence (P09874 whole entry): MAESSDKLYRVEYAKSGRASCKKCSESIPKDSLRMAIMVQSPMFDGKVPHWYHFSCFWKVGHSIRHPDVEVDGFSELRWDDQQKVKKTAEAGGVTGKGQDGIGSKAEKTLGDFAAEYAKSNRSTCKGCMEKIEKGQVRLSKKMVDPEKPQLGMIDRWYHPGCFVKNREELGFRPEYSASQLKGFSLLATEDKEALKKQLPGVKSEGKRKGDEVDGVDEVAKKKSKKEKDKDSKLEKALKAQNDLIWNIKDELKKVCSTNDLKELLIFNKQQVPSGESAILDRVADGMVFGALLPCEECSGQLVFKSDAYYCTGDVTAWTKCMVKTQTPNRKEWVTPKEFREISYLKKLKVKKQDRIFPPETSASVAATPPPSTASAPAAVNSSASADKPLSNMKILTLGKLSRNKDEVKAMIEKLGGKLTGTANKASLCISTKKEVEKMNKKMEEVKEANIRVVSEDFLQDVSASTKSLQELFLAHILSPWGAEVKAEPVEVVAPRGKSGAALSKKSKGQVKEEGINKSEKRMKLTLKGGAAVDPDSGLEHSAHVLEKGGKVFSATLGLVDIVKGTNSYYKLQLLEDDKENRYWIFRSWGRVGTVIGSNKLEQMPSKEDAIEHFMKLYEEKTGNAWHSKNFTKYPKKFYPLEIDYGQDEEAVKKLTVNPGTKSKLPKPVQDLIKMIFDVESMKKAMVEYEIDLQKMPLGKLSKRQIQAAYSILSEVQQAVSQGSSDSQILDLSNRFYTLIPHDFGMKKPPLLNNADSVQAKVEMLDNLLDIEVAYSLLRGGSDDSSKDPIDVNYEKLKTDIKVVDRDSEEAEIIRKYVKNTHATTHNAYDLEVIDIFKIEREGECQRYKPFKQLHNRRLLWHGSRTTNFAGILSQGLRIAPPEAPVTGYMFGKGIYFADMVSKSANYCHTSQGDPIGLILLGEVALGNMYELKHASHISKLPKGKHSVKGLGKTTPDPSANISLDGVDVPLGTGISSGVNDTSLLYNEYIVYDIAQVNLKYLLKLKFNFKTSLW
- method-summary: PARP1 probe displacement HTRF assay
- condition-info: read-out: PARP1 HTRF; binned Kd, probe displacement HTRF
pKd: −log10 of the molar value.
# pKd per record follows

Check out these entries, answers already filled in.
CNC(=O)c1ccc(N2CCC(N3CCC(c4ccc(CC(F)(F)F)c(=O)[nH]4)C3)CC2)cn1 (racemic)
7.00 to 8.00
N#Cc1nc(C(=O)NC2CC2)ccc1N1CCC(N2CCC(c3cc4ccc(F)cc4c(=O)[nH]3)C2)CC1 (single isomer, unassigned) [Compound 397a]
> 8.00

pKd for O=C(NC1CC1)c1ccc(N2CCC(N3CCC(c4cc5cccc(F)c5c(=O)[nH]4)C3)CC2)cn1 (single isomer, unassigned) [Compound 339a] is > 8.00

pKd for CCc1ccc(C2CCN(C3CCN(c4ccc(C(=O)NC5CC5)nc4)CC3)C2)[nH]c1=O (single isomer, unassigned) [Compound 338b] is 7.00 to 8.00

pKd for O=C(NCC(F)F)c1ccc(N2CCC(N3CCC(c4cc5ccc(F)cc5c(=O)[nH]4)C3)CC2)c(F)n1 (single isomer, unassigned) [Compound 399a] is > 8.00

pKd for O=C(NC1CC1)c1ccc(N2CCC(N3CCC(c4cc5ncc(F)cc5c(=O)[nH]4)C3)CC2)cn1 (single isomer, unassigned) [Compound 372b] is > 8.00

pKd for CS(=O)(=O)Nc1ccc(N2CCC(N3CCC(c4cc5ccccc5c(=O)[nH]4)C3)CC2)cn1 (single isomer, unassigned) [Compound 252a] is 6.00 to 7.00

* * *

# Kd per record follows
- assayed-system: N-terminally FLAG-tagged PARP2 (amino acids 1-583) (Homo sapiens, UniProt Q9UGN5)
- Construct: N-terminally FLAG-tagged PARP2 (amino acids 1-583)
- method-summary: PARP2 probe displacement HTRF assay
- Format: binding
- condition-info: binned Kd, probe displacement HTRF

Kd for N#Cc1nc(C(=O)NC2CC2)ccc1N1CCC(N2CC3(c4nc5ccc(F)cc5c(=O)[nH]4)CC2C3)CC1 is 100 to 1000 nM

Kd for CNC(=O)c1ncc(N2CCC(N3CCC(c4cc5ccc(F)cc5c(=O)[nH]4)C3)CC2)cc1F (single isomer, unassigned) [Compound 395b] is 10 to 100 nM

Kd for CNC(=O)c1cc(C(F)(F)F)c(N2CCC(N3CCC(c4cc5cccc(F)c5c(=O)[nH]4)C3)CC2)cn1 (single isomer, unassigned) [Compound 308a] is 1000 to 10000 nM

Kd for CNC(=O)c1ncc(N2CCC(N3CCC(c4cc5ccc(F)cc5c(=O)[nH]4)C3)CC2)cc1F (single isomer, unassigned) [Compound 395a] is 100 to 1000 nM

Kd for N#Cc1ccc(N2CCC(N3CC4(c5nc6ccc(F)cc6c(=O)[nH]5)CC3C4)CC2)c(Cl)c1 is 1000 to 10000 nM

Kd for CNC(=O)c1ccc(N2CCC(N3CCC(c4cc5c(F)cncc5c(=O)[nH]4)C3)CC2)cn1 (single isomer, unassigned) [Compound 331b] is 1000 to 10000 nM

Kd for CNC(=O)c1cc(C)c(N2CCC(N3CCC(c4nc5ccccc5c(=O)[nH]4)C3)CC2)c(C)n1 (single isomer, unassigned) [Compound 224a] is 1000 to 10000 nM

Kd for CNC(=O)c1ccc(N2CCC(N3CCC(c4cc5ncc(F)cc5c(=O)[nH]4)C3)CC2)c(F)n1 (single isomer, unassigned) [Compound 324b] is 100 to 1000 nM

Kd for CC(=O)NC(=O)c1ccc(N2CCC(N3CCC(c4cc5ccccc5c(=O)[nH]4)C3)CC2)cc1 (single isomer, unassigned) [Compound 341b] is 100 to 1000 nM

Kd for CNC(=O)c1ccc(N2CCC(N3CCC(c4cnc(CC(F)(F)F)c(=O)[nH]4)C3)CC2)cn1 (single isomer, unassigned) [Compound 287a] is > 10000 nM

Kd for CS(=O)(=O)Nc1ccc(N2CCC(N3CCC(c4cc5ccccc5c(=O)[nH]4)C3)CC2)cc1 (single isomer, unassigned) [Compound 251b] is 100 to 1000 nM

Kd for N#Cc1nc(C(=O)NC2CC2)ccc1N1CCC(N2CCC(c3cc4cccc(F)c4c(=O)[nH]3)C2)CC1 (single isomer, unassigned) [Compound 410b] is 100 to 1000 nM

Kd for O=C(NCC(F)F)c1ccc(N2CCC(N3CCC(c4cc5ccc(F)cc5c(=O)[nH]4)C3)CC2)c(F)n1 (single isomer, unassigned) [Compound 399a] is 100 to 1000 nM

Kd for CNC(=O)c1ccc(N2CCC(N3CCC(c4cc5c(F)cncc5c(=O)[nH]4)C3)CC2)cn1 (single isomer, unassigned) [Compound 331a] is 100 to 1000 nM

Kd for CCc1ccc(C2CCN(C3CCN(c4ccc(C(=O)NCC(F)F)nc4F)CC3)C2)[nH]c1=O (single isomer, unassigned) [Compound 398b] is 100 to 1000 nM

Kd for CNC(=O)c1ccc(N2CCC(N3CCC(c4[nH]c(=O)c5ccccc5c4C)C3)CC2)cn1 (racemic) is 10 to 100 nM

Kd for CNC(=O)c1ccc(N2CCC(N3CCC(c4cnc(C(F)(F)F)c(=O)[nH]4)C3)CC2)cn1 (single isomer, unassigned) [Compound 279a] is > 10000 nM

Kd for CNC(=O)c1ccc(N2CCC(N3CCC(c4cc5c(c(=O)[nH]4)CCC(=O)N5)C3)CC2)cn1 (single isomer, unassigned) [Compound 309b] is > 10000 nM

Kd for CC(=O)Nc1ccc(N2CCC(N3CCC(c4cc5ccccc5c(=O)[nH]4)C3)CC2)cc1 (single isomer, unassigned) [Compound 289a] is 1000 to 10000 nM

Kd for CNC(=O)c1ccc(N2CCC(N3CCC(c4cc5c(c(C(F)(F)F)nn5C)c(=O)[nH]4)C3)CC2)c(F)n1 (single isomer, unassigned) [Compound 407b] is < 10 nM

Kd for N#Cc1ccc(N2CCC(N3CCC(c4cc5cccc(F)c5c(=O)[nH]4)C3)CC2)cc1 (single isomer, unassigned) [Compound 314b] is 100 to 1000 nM

Kd for CCc1ccc(C2CCN(C3CCN(c4ccc(C(=O)NC5CC5)nc4C#N)CC3)C2)[nH]c1=O (single isomer, unassigned) [Compound 409a] is 1000 to 10000 nM

Kd for CCc1ccc(C2CCN(C3CCN(c4ccc(OC(F)F)nc4)CC3)C2)[nH]c1=O (single isomer, unassigned) [Compound 382b] is 100 to 1000 nM

Kd for CNC(=O)c1ccc(N2CCC(N3CCC(c4cc5c(F)ccc(F)c5c(=O)[nH]4)C3)CC2)c(F)n1 (single isomer, unassigned) [Compound 323a] is > 10000 nM
